meta.source: the supplement of paper PMC12764529

# Test description: folding stability dG unfold from trypsin proteolysis; higher = more stable
Assay readout: folding stability dG unfold (kcal/mol)
State the answer as a number, implicitly in kcal/mol.

A selection of reference data follows.
- Seq string: "SAGGSAGGSAGKKKVKLVEFDEETGYALLEVEDEETGETKLVLVPMTAEELEALPNIEVLSAGGSAGGSAGG [r17_46_TrROS_Hall]"
  folding stability dG unfold / kcal/mol: 2.14
- Seq string: "GSVTIELVVPKGVDIPLALLAGIASTGKGKVTARISNPLSGKEIEVTFPGGGLGEAGVTEGINVVRLTVYGS [r1_238_TrMRF]"
  folding stability dG unfold / kcal/mol: 0.869
- Seq string: "SAGGSAGGSAKTITITVKPEDMTEEELKEKIAEELGIDPEEIEIVKVEKLPNGEVKVTIKIKSAGGSAGGSA [r18_118_TrROS_Hall]"
  folding stability dG unfold / kcal/mol: 3.59

Q: Any idea what folding stability dG unfold was measured for SAGGSAGGMTVDPENPVVYYPGSDGKAQTYPLSPDSSLKLPDGKVVTVTPVPEGSVSVSVSPVESAGGSAGG [r6_296_JUSTAS] ?
Result: 0.571

Q: Endpoint output: folding stability dG unfold of SAGGSASDVVPIDKKITITLPGGEKYEVTEMTVLPDGTVKMKIIKKSPNGNPTEEEITLSPEELVDLSAGGS [r16_498_JUSTAS] . Value?
Result: 2.26

Q: Fill in: folding stability dG unfold of SSATVTFTVELPDDSVIVSVRIDAEEYDPGPPWVRVTIEVEIYDKNGELLATLRFEFLLPREVLEELRKSSA [r9_234_TrMRF] is ___
Result: 4.23

---

// reported folding stability dG unfold for each item listed
# Test description: folding stability dG unfold from chymotrypsin proteolysis; higher = more stable
Only the number, expressed in kcal/mol, is required.

Recorded folding stability dG unfold, per entry:
- Seq string: "SAGGKTIMHMYMNPNGWFIRAKIKLDPDGKWKITDVEIYPMEMKYEDPNGKPREMPMFMIKIRIKPDSAGGS [r8_270_TrROS]"
  folding stability dG unfold / kcal/mol: 4.26
- Seq string: "SKFDPDDPGQPVRFTVMIPVPEDAMKNGDLEEVRDKVEEAADMFRPHGMEVKDIEVPPEQGWVMVKFEMPSA [r9_75_TrROS]"
  folding stability dG unfold / kcal/mol: -0.222

Q: Endpoint output: folding stability dG unfold of SAGGSEILKKLFPNVKKIEIEVEEVEVKYSEEEKKANPNKKVKVEVKVKVKIKIKIELEFDKNGKLSAGGSA [r2_404_TrROS_Hall] . Value?
Result: 1.92

Q: Given SASPWIQKLAEEIADELAKENGWEEVKFTVTLPIRMPMYRYDPNGKKEPHDMWMWIKFEVTARVPPGDPSAG [r14_232_TrROS] , state its recorded folding stability dG unfold.
Result: 2.01

Q: Value lookup for folding stability dG unfold; key = SAGGSAGGSAGNPNTPVIVKITLPGGKEITLEGTVSEAEEIVKKLEEEGHPFVEVEVYNRSAGGSAGGSAGG [r11_946_JUSTAS]
Result: -0.849

Q: What does the record list as folding stability dG unfold for SAPPETVEVEEVAEFELADGSKVTVAKVKLPNGETLVVVTVYNKDGEPVATFVVREGDPDALAEALKALSSA [r9_1069_TrROS_Hall] ?
Result: 4.56

Q: Can you share its folding stability dG unfold? I mean this sequence: MTPEAFAGPGGRPLAELFLARFRRPVLDPETGLPTWEPAGVLVFPRETEPEELAAIFEALPELEEIEIAPAS [r1_132_TrMRF]
Result: 0.149

Q: Value lookup for folding stability dG unfold; key = SAGGSAGGKPVTVEVDIVVKPGDTIEFPPGAKVEIVEKKEVEVNGKKYQVFKIKVTLPPGEEALSAGGSAGG [r6_454_TrROS_Hall]
Result: 2.85

Q: Which folding stability dG unfold is reported for this sequence? SAGGSAGGSAGNADQIKEIARKYAPKNGMKPKDVDIEVEERENPNGKKELHIDVEGEYKNSAGGSAGGSAGG [r11_414_TrROS]
Result: 0.00121

Q: Which value of folding stability dG unfold has been reported for SAGGMVQISVTEIDPETGLITIEMKFPKGVDDPAKIAAAKAEAEAFAQELEKKLGLPVKVTFTPLPESAGGS [r16_304_JUSTAS] in the records?
Result: 1.9

Q: Give its folding stability dG unfold value. Item: SAGGSAGGSAGGMPTYEVTLEPDPTGGDVYTVTVTFPDGSTVTRNATPAELKAEGLTVKVSAGGSAGGSAGG [r7_14_JUSTAS]
Result: 0.88

Q: Which measured folding stability dG unfold value corresponds to SAGGSFLVPTSSMEEAEEIKNAVLAGEPVTVTPPDGVPVTVKAKSVEVDPETGKVRIIDPSGEKLALSAGGS [r16_254_JUSTAS] ?
Result: 0.414

Q: Entry SAMKIVEIVEYDKEKKKIRIKIEVNGKLLEIEIEAESEEEVEEALKKLKEELEFELPDGKKVRITEIEISAG [r14_422_TrROS_Hall] : reported folding stability dG unfold = ?
Result: 2.08

Q: State the recorded folding stability dG unfold for this entry: SAGGSAGGSLVLPDDYKVIVREFDLSDVGRAVREVMEEFDVKDALFLAVPLPGKVLLFVVVKESAGGSAGGS [r12_929_TrMRF]
Result: 2.9

---

# Test description: folding stability dG unfold (combined trypsin and chymotrypsin); higher = more stable
Assay readout: folding stability dG unfold (kcal/mol)
Provide the reading as a plain figure in kcal/mol.

- Seq string: "SAGGSAGGTFEFFFPDGLYFTVEFRIVEMHPNPGNGQMHMRMEATIKIIPLPPPPPPPKDPGDKSAGGSAGG [r6_939_TrROS]"
  Meas value: 3.83
- Seq string: "SAGGMKVKVEVEITVNGKLVKKLTVEMSVEELKKLIEELLPPGAKVEVKIVEVKVEEVEVYELPEEEKSAGG [r13_491_TrROS_Hall]"
  Meas value: 2.18
- Seq string: "SAGGSATIEEIANMPAEEIAQEHGMEVKDVDIERVPNGTITVEVEYEPPDGKKHKHTFQIKIDEGQSAGGSA [r15_805_TrROS]"
  Meas value: 0.284

Now let's try a different one.
Q: # folding stability dG unfold lookup, item SAGGSAGGSEATLEVEVRVDGVLVRVRVEYDLETQELRIEVEVRPLPPPPVEVRTEYRSLEDLSAGGSAGGS [r12_813_TrROS_Hall]
Result: 1.5

---

Overview of recorded folding stability dG unfold for various sequences
# Test description: folding stability dG unfold from chymotrypsin proteolysis; higher = more stable
Numbers only; they are read as kcal/mol.

Known folding stability dG unfold results, listed for orientation:
- Seq string: "SAGVVEITFEVPETGEPFTLVIDEDGNVTGRWPSTGDEQEWKLGDKVITFPPNMSPELAAELEKEALSESAG [r14_561_TrMRF]"
  folding stability dG unfold (kcal/mol): 0.587
- Seq string: "SAGGSAGGSFRIKEIEYKPPKGMIEVEIEFPNGRPIKIHINPDEGWDPIYFGGKPIFPIRIEPSAGGSAGGS [r12_789_TrROS]"
  folding stability dG unfold (kcal/mol): 0.859
- Seq string: "SAGGMPPVVLEYEIDIKPDPNETLEDVLEKAEEFVEELKEAFPELDLKEVKVEVDPEKGKVKITVVFPSAGG [r13_1011_TrMRF]"
  folding stability dG unfold (kcal/mol): 1.95
- Seq string: "SAGGSAMSVTLTFEEPVGPGVPVKVTVTVERFPDSVKVTVTTTFPDGTVTTTPVSLKLEPAAVDLLSAGGSA [r15_263_JUSTAS]"
  folding stability dG unfold (kcal/mol): 2.69
- Seq string: "SAGGPPNYRIKIEYYPPNGMITVELPFDSPDELLDEIRELPGLPVEPDNDGTIIIMFPNHMIKIDIWKSAGG [r13_143_TrROS]"
  folding stability dG unfold (kcal/mol): 2.72

Q: Please look up its folding stability dG unfold: SGLVEAIAKALGAESVTPHPDGTFSLRLKDGSYLKIKVEVLEVRERPDGSPEFIVKIEIEVFEGGKPEDESA [r9_648_TrMRF]
Result: 5.94

Q: // query folding stability dG unfold value for entry SAGGSAGGSAGGMPPGTVVRSEVVRTETFTETITLPSGETATTTVTTTTTTEVEVEQPLSAGGSAGGSAGGS [r10_297_JUSTAS]
Result: 0.469

---

# Test description: folding stability dG unfold (combined trypsin and chymotrypsin); higher = more stable
// folding stability dG unfold lookup, one value per entry
Express your answer in kcal/mol, writing the number without its unit.

- Seq string: "SAGGSAGGSAGGTLEFTFPGEGNLLAKVRIDLGESGNVRIDVYIYDGDTLLAKATFTLNLSAGGSAGGSAGG [r7_79_TrMRF]"
  Meas value: 5.48
- Seq string: "SAGGSEAEIVSVEFDEETGTISVLVRNSDGSLYRAEIRFERLPDGSLLVTIKVTLPDGKELTFVFPSAGGSA [r2_488_TrROS_Hall]"
  Meas value: 5.78
- Seq string: "SAGGGPPPVEVTTSTDPSTGKVTTTVTAGPAGTRFTSSSPNGSSTTTTTVTYVGDTWEVSTSSTSSSSAGGS [r16_631_JUSTAS]"
  Meas value: 1.31

Now for the sequence whose folding stability dG unfold we want.
Q: Given SAGGSMELELEVKNPETGKTYKVKITSFDEETGEVTVEIEDEETGETKTLTFKVEPVELVEEEEEESAGGSA [r2_147_TrROS_Hall] , state its recorded folding stability dG unfold.
Result: 3.08
